details: Ebola virus entry assay, blue channel fluorescence
The source made the active and inactive calls.
Hi there, use one of these labels in your reply, thanks! T for active, F for inactive

State the result this test recorded for CC(C)(C)OC(=O)c1ncn2c1[C@@H]1CCCN1C(=O)c1c(Br)cccc1-2 . F

* * *

test system: OV90; assay: Primary qHTS to identify gynecologic anti-cancer compounds using libraries of approved drugs and bioactive compounds (AID 1345084); settings: Gynecologic cancer cell panel viability, ATPlite luminescence, 48 h; series mostly up to 57.5 µM; note: nearly all actives have a fitted effect of over 55% in size
Records with an inconclusive call do not appear. Activity calls are given as the source filed them. The call rests on the fitted dose curve; in most records, active means well fitted cell-killing curve with a large enough effect; inconclusive means small, poorly fitted or top-dose-only effect, or effect the other way; inactive means flat fitted curve, though single readings scatter.
Outcome (select one): 1.0 = active, 0.0 = inactive

These recorded examples may help you get a feel for the data.
                                   molecule  classification
0                     O=C(CCCCl)c1ccc(F)cc1             0.0
1            O=c1[nH]c2cc(Cl)ccc2n1C1CCNCC1             0.0
2  COP(=S)(OC)Oc1ccc(Sc2ccc(OP(=S)(OC)OC)cc2)cc1             0.0
3             CCS(=O)(=O)C(C)(C)S(=O)(=O)CC             0.0
4  c1ccc2c(c1)Sc1ccccc1N2CC1CN2CCC1CC2 (configuration not stated)             1.0

Please share the test call associated with C[C@]12C=CC(=O)C=C1CC[C@@H]1[C@@H]2CC[C@@]2(C)[C@H]1CC[C@]2(C)O . 0.0

// outcome(item) with item = ClC1=C(Cl)C2(Cl)C(CBr)CC1(Cl)C2(Cl)Cl (configuration not stated) 0.0

Please state the recorded outcome for this molecule: C[C@]12CC[C@H](O)CC1=CC[C@@H]1[C@@H]2CC[C@]2(C)C(=O)CC[C@@H]12 0.0

Give the logged outcome of this assay for the following molecule: CCc1ccc(C2CCNCC2)cc1 0.0

Given COc1cc(CC(C)N)c(OC)cc1Br (configuration not stated) , state the outcome it received in this test. 0.0

Check the results log: what was the call for CC[n+]1c(-c2ccccc2)c2cc(N)ccc2c2ccc(N)cc21 ? 1.0

# fetch the recorded call for CCC1(c2ccccc2)CCC(=O)NC1=O (configuration not stated) here 0.0

Could you check what this test reported for CCOC(=O)C(c1c(O)c2ccccc2oc1=O)c1c(O)c2ccccc2oc1=O ? 0.0

* * *

conditions: Ebola virus entry assay, blue channel fluorescence
Active and inactive are the calls of the source.
Your reply should match one of these outcome classes. y = active, n = inactive

Worked cases, answers included:
>>> df
                                   compound  classification
0  CN1CCN(CCC(=O)N2c3ccccc3Sc3ccc(C(F)(F)F)cc32)CC1               y
1  CCOC(=O)c1cc(=O)c2c(OCC(COc3cccc4oc(C(=O)OCC)cc(=O)c34)OC(=O)[C@@H](N)CCCCN)cccc2o1               n
2  CC(CC(C#N)(c1ccccc1)c1ccccc1)N(C)C (centres undefined)               y
3  CC(C)C[C@@H]1[C@H](c2ccccc2)OC(=O)N1CCCN1CCCCCC1               y

Assay outcome for CC1(C)O[C@@H]2C[C@H]3[C@@H]4CCC5=CC(=O)CC[C@]5(C)[C@@]4(F)[C@@H](O)C[C@]3(C)[C@]2(C(=O)CCl)O1 : what was it? y

Which outcome was assigned to O=c1[nH]c(=O)n([C@H]2C[C@H](O)[C@@H](CO)O2)cc1C(F)(F)F in this test? n

Please share the test call associated with O=C(CCl)c1ccc(Cl)cc1Cl . n

Which outcome was entered for the compound N/C(=N\N=C\c1ccc(Cl)cc1)N/N=C/c1ccc(Cl)cc1 in this test? y

Tell me the recorded outcome of this test for C#C[C@]1(OC(C)=O)CC[C@H]2[C@@H]3CCC4=C/C(=N/O)CC[C@@H]4[C@H]3CC[C@@]21CC . y

Source of measurements: PubChem BioAssay (NCATS)
